study-target: purified human thrombin (Homo sapiens, UniProt P00734)
pIC50: −log10 of the molar value. Counter-ions that a name gives are not always drawn.
parameter: pIC50

IN: Notebook entry, purified human thrombin (Homo sapiens, UniProt P00734) assay: pIC50 of N=C(N)c1ccc(CNC(=O)C2(NC(=O)[C@H](NCC(=O)O)C3CCCCC3)Cc3ccccc3C2)cc1 [Example 1, hydrochloride] = ?
OUT: < 4.48

---

study-target: purified human plasmin (Homo sapiens, UniProt P00747)
Construct: purified human plasmin (2 nM, Stago); purchased Stago
Sequence (P00747 581-810 limits assumed): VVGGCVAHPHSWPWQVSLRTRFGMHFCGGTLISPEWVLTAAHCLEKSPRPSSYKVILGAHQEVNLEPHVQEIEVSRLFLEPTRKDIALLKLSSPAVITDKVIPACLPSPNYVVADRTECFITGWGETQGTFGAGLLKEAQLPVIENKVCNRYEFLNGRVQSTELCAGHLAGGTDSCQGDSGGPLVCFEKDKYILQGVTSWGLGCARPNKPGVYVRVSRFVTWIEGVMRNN
Sequence (P00747 97-580 limits assumed): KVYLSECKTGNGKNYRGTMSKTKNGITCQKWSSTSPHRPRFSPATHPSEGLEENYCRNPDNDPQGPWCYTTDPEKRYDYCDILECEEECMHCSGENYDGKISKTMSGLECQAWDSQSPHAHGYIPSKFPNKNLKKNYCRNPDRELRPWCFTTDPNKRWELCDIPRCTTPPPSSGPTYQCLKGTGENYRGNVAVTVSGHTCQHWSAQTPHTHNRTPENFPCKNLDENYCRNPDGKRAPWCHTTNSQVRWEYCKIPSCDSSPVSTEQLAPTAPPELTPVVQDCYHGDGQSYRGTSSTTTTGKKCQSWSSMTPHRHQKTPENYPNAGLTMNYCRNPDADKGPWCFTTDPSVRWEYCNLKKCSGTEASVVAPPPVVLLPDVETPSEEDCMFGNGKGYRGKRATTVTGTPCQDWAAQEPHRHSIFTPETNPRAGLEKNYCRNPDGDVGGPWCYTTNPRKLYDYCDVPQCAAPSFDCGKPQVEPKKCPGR
assay-procedure: Inhibition of purified human plasmin, chromogenic substrate S2403 (selectivity)
Format: biochemical
stated-conditions: plasmin 2 nM, substrate <Glu-Phe-Lys-pNA 0.37 mM, read at 405 nm; read-out: IC50 with respect to plasmin
Protocol: In order to assess in vitro the inhibitory activity of products of the invention on purified human activated protein C (Diagnostica Stago), the chromogenic substrate pyroGlu-Pro-Arg-pNA (0.39 mM, S2366, Chromogenix) was added to a given amount of activated protein C (2 nM) previously incubated with or without the inhibitor under test (20° C., 30 minutes). […]
Where a name gives a salt, the structure may show the parent alone.
parameter: IC50

IN: Recorded IC50 of N=C(N)c1ccc(CNC(=O)C2(NC(=O)[C@H](NCC(=O)O)C3CCCCC3)Cc3ccccc3C2)cc1 [Example 1, hydrochloride] , please.
OUT: 1.1 µM

---

study-target: purified human activated protein C (Homo sapiens)
Sequence (P04070 212-461 limits assumed): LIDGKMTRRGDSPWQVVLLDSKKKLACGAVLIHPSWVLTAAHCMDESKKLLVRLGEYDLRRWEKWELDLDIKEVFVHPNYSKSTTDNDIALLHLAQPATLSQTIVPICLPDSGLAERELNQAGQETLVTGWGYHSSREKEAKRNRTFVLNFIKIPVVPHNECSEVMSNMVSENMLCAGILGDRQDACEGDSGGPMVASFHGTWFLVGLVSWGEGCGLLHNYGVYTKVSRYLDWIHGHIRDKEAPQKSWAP
Sequence (P04070 43-197 limits assumed): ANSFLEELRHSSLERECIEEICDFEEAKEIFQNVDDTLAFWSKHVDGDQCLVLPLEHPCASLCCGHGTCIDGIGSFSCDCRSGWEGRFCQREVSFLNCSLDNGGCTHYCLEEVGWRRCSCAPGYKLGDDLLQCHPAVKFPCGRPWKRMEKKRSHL
assay-procedure: Inhibition of purified human activated protein C, chromogenic substrate S2366
stated-conditions: activated protein C 2 nM, inhibitor preincubated 20° C., 30 minutes, substrate pyroGlu-Pro-Arg-pNA 0.39 mM, read at 405 nm; read-out: IC50 with respect to activated protein C
Counter-ions that a name gives are not always drawn.
parameter: pIC50
Remember the convention: pIC50 equals -log10 of concentration in molar.

IN: Please give the measured pIC50 for this compound: N=C(N)c1ccc(CNC(=O)C2(NC(=O)[C@H](NCC(=O)O)C3CCCCC3)Cc3ccccc3C2)cc1 [Example 1, hydrochloride]
OUT: 6.09

Ref: patent US7265220B2
